biological target: human SOS1 (nucleotide exchange of K-Ras^G12C) (Homo sapiens); assay: Biochemical assay 2: K-Ras^G12C activation assay by hSOS1 at high GTP concentration (HTRF); settings: high GTP; read-out: Assay 2 (KRAS-Activation by SOS high GTP) activity expressed as IC50
pIC50: −log10 of the molar value.
Catalogue of pIC50 readings, one per entry.
Value type: pIC50

> print(dat)
                                   compound  recorded.result
1  COc1cc2nc(C)nc(N[C@H](C)c3ccc(C(N)=O)cc3)c2cc1OC             5.39
2  COc1cc2nc(C)nc(NC(C)c3ccc(-c4ccccc4CNC4CCCC4)s3)c2cc1OC (stereo not shown)             6.80
3  COc1cc2nc(C)nc(N[C@H](C)c3cccc(-c4cncnc4)c3)c2cc1OC             5.73
4  COc1cc2nc(C)nc(NC(C)c3ccc(-c4ccc(F)cc4CNC(C)=O)s3)c2cc1OC (stereo not shown)             6.23
5  COc1cc2nc(C)nc(NC(C)c3cccc(Oc4ccccc4)c3)c2cc1OC (single isomer, unassigned; enantiomer 1) [Example 228]             6.19
6  COc1cc2nc(C)nc(NC(C)c3ccc(-c4ccccc4C(N)=O)s3)c2cc1OC (stereo not shown)             5.50
7  COc1cc2nc(C)nc(N[C@@H](C)c3ccc(-c4ccc(C(=O)NCCN(C)C)cc4)s3)c2cc1OC (racemic)             5.74
